# System: PFTAIRE2
# Measurement context: concentration: 1 μM, replicates: in singlicate; n = 1;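 note: KINOMEscan kinase panel screen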
Assay readout: %Inh (%)
Answers are plain numbers, in %.

Please report %Inh for every entry that follows.
1. Nc1nc(-c2nccs2)c(-c2ccnc3ccccc23)s1
2. Cn1ccc2ncnc(Oc3cccc(C(=O)Nc4ccccc4)c3)c21
3. O=C(Nc1n[nH]c2nc(-c3nccs3)c(Br)cc12)C1CCCC1
4. Cc1ccccc1-n1cnc2c(N)ncnc21
5. NC(=O)c1nnc2ccccc2c1N

Outgoing:
[13, 0, 7, 0, 14]

Please report %Inh for every entry that follows.
1. Cc1cccc(-c2nc(Nc3ccc4[nH]ncc4c3)c3ccccc3n2)n1
2. COc1ccc(Nc2nccc(NCCNC(=O)Nc3ccccc3F)n2)cc1
3. O=C1NC(=O)C(N2CCc3ccccc32)=C1c1ccccc1Cl
4. O=S(=O)(c1ccc(-c2ccnc3[nH]ccc23)cc1)N1CCCC1
5. CC(C)(C)c1ccc(C(=O)Nc2cn3cc(-c4cccnc4)ccc3n2)cc1

Outgoing:
0
3
9
24
2

* * *

# Tested on: CDK3
# Measurement context: concentration: 1 μM, replicates: in singlicate; n = 1
Exercise: for every item that follows, state its recorded %Inh.
Answers are plain numbers, in %.

Please report %Inh for every entry that follows.
1. COc1ccc(CNC(=O)NC2CCN(c3ccnc(Nc4cc(OC)c(OC)c(OC)c4)n3)C2)cc1 (stereo not drawn)
2. O=C(O)COc1ncnc2cc(-c3ccc4[nH]ncc4c3)sc12
3. Cc1cc(NCC(c2ccccc2)c2ccccc2)nc(NCc2ccc(C(F)(F)F)cc2)n1
4. COc1cccc(-c2cc(-c3c[nH]nc3-c3ccccn3)ccn2)c1
5. O=C(Nc1n[nH]c2nc(-c3nccs3)c(Br)cc12)C1CC1
6. O=C1NC(=O)C(N2CCc3ccccc32)=C1c1ccccc1Cl
7. O=S(=O)(c1ccc(-c2ccnc3[nH]ccc23)cc1)N1CCCC1

Outgoing:
0
20
0
6
50
0
1

Please report %Inh for every entry that follows.
1. Cc1cccc(-c2nc(Nc3ccncc3)c3ccccc3n2)n1
2. COc1cc2nccc(Nc3ccc(NC(=O)c4ccc(C)cc4)c(O)c3)c2cc1OC.Cl

Outgoing:
20
9

* * *

Exercise: for every item that follows, state its recorded %Inh.
# Tested on: MAP3K1
# Measurement context: concentration: 1 μM, replicates: in singlicate; n = 1
Answers are plain numbers, in %.

These solved cases illustrate the format of a correct answer.
Cc1ccccc1-n1cnc2c(N)ncnc21 [SKF-97510]; 0
CC(=O)Nc1nc2cnc(Nc3cc(NC(=O)c4cccc(CCC#N)c4)ccc3C)nc2s1; 0
COc1cc(Nc2nccc(N3CCC(NC(=O)Nc4cc(C)ccc4C)C3)n2)cc(OC)c1OC (stereo not shown) [GSK1379762]; 16
Cc1cccc(-c2nc(Nc3ccncc3)c3ccccc3n2)n1 [GW855857]; 0
CC(C)(C)c1ccc(C(=O)Nc2cn3cc(Cl)ccc3n2)cc1; 0

Please report %Inh for every entry that follows.
1. COc1cccc(NC(=O)NC2CCN(c3ccnc(Nc4ccc(F)cc4)n3)C2)c1 (stereo not shown) [GSK1379721]
2. Cc1cc(N2Cc3ccccc3C2)nc(Nc2ccc(S(=O)(=O)N3CCOCC3)cc2)n1.Cl [GSK1669917]

Outgoing:
1: 5; 2: 0

* * *

# System: CDK9
# Measurement context: concentration: 1 μM, replicates: in singlicate; n = 1
Assay readout: %Inh (%)
Give bare numbers, in %.

Cc1cccc(-c2nc(Nc3ccncc3)c3ccccc3n2)n1; 0
COc1ccccc1-c1ccc2c(NC(=O)C3CC3)n[nH]c2n1; 0
COc1cc2nccc(Nc3ccc(NC(=O)c4ccc(C)cc4)c(O)c3)c2cc1OC.Cl; 0
COC(=O)c1c(-c2ccccc2)c2cc(OC)ccc2c(=O)n1Cc1ccccc1; 9
COc1ccccc1CNC(=O)c1cc(C(=O)c2ccccc2C)c[nH]1; 0
Cc1csc(-c2nc(Nc3ccncc3)c3ccccc3n2)n1; 9
Cc1ccc(NC(=O)Nc2cccc(Cl)c2)cc1-c1ccc(C(=O)Nc2ccncc2)cc1; 0
COc1cc2ncnc(Nc3ccc4nc(-c5ccccc5)[nH]c4c3)c2cc1OC.Cl; 0

Please report %Inh for every entry that follows.
1. Fc1cccc(COc2nnc(-c3ccc4c(c3)CCO4)o2)c1
2. Cl.Oc1ccc(-c2nc(-c3ccccc3)[nH]c2-c2ccncc2)cc1
3. O=C(Nc1n[nH]c2cc(-c3cccc(F)c3F)ccc12)C1CC1
4. Fc1cc(Cl)ccc1Nc1ccnc2cc(I)ccc12
5. CC1=C(C(=O)Nc2cc3cn[nH]c3cc2F)C(c2ccc(C(F)(F)F)cc2)CC(=O)N1 (stereo not shown)

Outgoing:
[0, 0, 5, 0, 0]

Please report %Inh for every entry that follows.
1. NC(=O)c1nnc2ccccc2c1N
2. Cc1cccc(-c2nc(Nc3cccc(C(N)=O)c3)c3ccccc3n2)n1
3. Cn1cncc1-c1ccc2ncnc(Nc3ccc(OCc4ccccc4)cc3)c2c1
4. Cn1ccc2ncnc(Oc3ccc(Nc4nc5ccccc5[nH]4)cc3)c21

Outgoing:
1: 15; 2: 0; 3: 0; 4: 0

Please report %Inh for every entry that follows.
1. CC(=O)Nc1nc2cnc(Nc3cc(NC(=O)c4cccc(CCC#N)c4)ccc3C)nc2s1
2. O=S(=O)(c1ccc(-c2ccnc3[nH]ccc23)cc1)N1CCCC1

Outgoing:
1: 0; 2: 0

* * *

Exercise: for every item that follows, state its recorded %Inh.
# Tested on: MYLK
# Measurement context: concentration: 1 μM, replicates: in singlicate; n = 1
Numbers only, in %.

Please report %Inh for every entry that follows.
1. COc1cc2ncn(-c3cc(OCC4CCCO4)c(C(N)=O)s3)c2cc1OC (stereo not drawn)
2. COc1cc(Nc2nccc(N3CCC(NC(=O)Nc4cc(C)ccc4C)C3)n2)cc(OC)c1OC (stereo not drawn)
3. Nc1nc(-c2nccs2)c(-c2ccnc3ccccc23)s1

Outgoing:
19
12
11

* * *

# Tested on: EPHA1
# Measurement context: concentration: 1 μM, replicates: in singlicate; n = 1
Exercise: for every item that follows, state its recorded %Inh.
Answers are plain numbers, in %.

These solved cases illustrate the format of a correct answer.
Cc1c(O)cccc1Nc1ccnc2ccc(C(F)(F)F)cc12.Cl [GW466413]; 77
Cc1c(Cn2ccn3c(=O)cc(N4CCOCC4)nc23)cccc1C(F)(F)F [GSK2289044]; 9
O=S(=O)(c1ccc(-c2ccnc3[nH]ccc23)cc1)N1CCCC1 [GSK846226]; 5
Cc1ccccc1-n1cnc2c(N)ncnc21 [SKF-97510]; 0

Incoming: Endpoint output: %Inh of Nc1ncnc2[nH]c(-c3ccccc3)nc12 [AH5015] . Value?
Outgoing: 16

* * *

# Tested on: MKNK1
# Measurement context: concentration: 1 μM, replicates: in singlicate; n = 1
Lab note: compare %Inh against 7%. Equal or greater, write 1.0. Smaller, write 0.0.

Answered cases to consult:
Fc1cccc(COc2nnc(-c3ccc4c(c3)CCO4)o2)c1; 0.0
Cc1cccc(-c2nc(-c3ccc(S(C)(=O)=O)cc3)sc2-c2ccnc(NCCc3ccccc3)c2)c1; 0.0
COc1cccc(-c2cc(-c3c[nH]nc3-c3ccccn3)ccn2)c1; 0.0
CCn1c(-c2cccnc2O)nc2cnccc21; 1.0
Cl.c1ccc(-c2n[nH]cc2-c2ccnc(-c3ccc(CN4CCOCC4)cc3)c2)nc1; 0.0

Incoming: Check if %Inh >= 7% (inclusive). Item: `CC(=O)Nc1nc2cnc(Nc3cc(NC(=O)c4cccc(CCC#N)c4)ccc3C)nc2s1`
Outgoing: 0.0

Incoming: Check if %Inh >= 7% (inclusive). Item: `O=C(Nc1ccccc1)Nc1cccc(Oc2ccc3nccn3n2)c1`
Outgoing: 1.0

Incoming: Check if %Inh >= 7% (inclusive). Item: `COc1ccc2nc(-c3cccc(C)n3)nc(Nc3ccncc3)c2c1`
Outgoing: 0.0

* * *

# Tested on: PFTAIRE2
# Measurement context: concentration: 1 μM, replicates: in singlicate; n = 1
Cut-off 2% on %Inh: below means rule met, at or above means rule not met.

Answered cases to consult:
Cc1cccc(-c2cc(Nc3ccncc3)c3ccccc3n2)n1 [GSK223675]; rule not met
O=C(Nc1ccccc1)Nc1cccc(Oc2ccc3nccn3n2)c1; rule not met
Cl.NC(=O)c1cccc(Nc2nccc(Nc3ccc(Oc4cccc(Cl)c4)c(Cl)c3)n2)c1 [GW659008]; rule not met
Cn1ccc2ncnc(Oc3ccc(NC(=O)Nc4ccccc4)cc3)c21; rule met
Cc1csc(-c2nc(Nc3ccncc3)c3ccccc3n2)n1 [GW869640]; rule not met
COc1cc2ncnc(Nc3ccc4nc(-c5ccccc5)[nH]c4c3)c2cc1OC.Cl [GW282450]; rule not met
CN(C)CCN(C)C(=O)c1cc(-c2ccncc2)c(-c2ccc(Cl)c(O)c2)o1.Cl.Cl [SB-710397]; rule met

Lab note: next compound to report on.
Incoming: Threshold test, %Inh < 2%: Cc1nnc(-c2ccc3occ(-c4ccc(S(C)=O)cc4)c3c2)[nH]1 (stereo not drawn)
Outgoing: rule not met
